This listing pairs molecules with measured pKi.
target-under-test: HIV-1 protease (Human immunodeficiency virus type 1 group M subtype B)
protocol-notes: HIV protease assay (Ki)
Format: biochemical
protocol-conditions: Table 1; read-out: HIV-1 Ki
pKi: −log10 of the molar value.
readout-name: pKi

• Cc1cccc(C)c1OCC(=O)N[C@@H](CC(C)C)C[C@H](O)[C@H](Cc1ccccc1)NC(=O)O[C@H]1CCOC1 = 9.65
• COc1ccc(C(=O)N[C@H](C(=O)N[C@@H](CC(C)C)C[C@H](O)[C@H](Cc2ccccc2)NC(=O)COc2c(C)cccc2C)C(C)C)cc1 = 10.52
• CC(C)C[C@@H](C[C@H](O)[C@H](Cc1ccccc1)NC(=O)O[C@H]1CCOC1)NC(=O)[C@H](C(C)C)N1CCCNC1=O = 10.03
• COc1ccc(S(=O)(=O)N[C@H](C(=O)N[C@@H](CC(C)C)C[C@H](O)[C@H](Cc2ccccc2)NC(=O)COc2c(C)cccc2C)C(C)C)cc1 = 11.17
• Cc1cccc(C)c1OCC(=O)N[C@@H](CC(C)C)C[C@H](O)[C@H](Cc1ccccc1)NC(=O)OCc1ccccc1 = 9.71
• Cc1cccc(C)c1OCC(=O)N[C@@H](Cc1ccccc1)[C@@H](O)C[C@H](CC(C)C)NC(=O)[C@H](CC(N)=O)NC(=O)c1ccc2ccccc2n1 = 10.42

----------
target-under-test: HIV-1 protease (Human immunodeficiency virus type 1 group M subtype B, UniProt P04585)
protocol-notes: HIV protease assay (Ki)
Type: biochemical
pKi: −log10 of the molar value.
This listing pairs compounds with measured pKi.
readout-name: pKi

• Cc1cccc(C)c1OCC(=O)N[C@@H](CC(C)C)C[C@H](O)[C@H](Cc1ccccc1)NC(=O)c1cccc(O)c1C = 9.51
• Cc1cccc(C)c1OCC(=O)N[C@@H](Cc1ccccc1)[C@@H](O)C[C@H](CC(C)C)NC(=O)OC(C)(C)C = 11.05
• Cc1cccc(C)c1OCC(=O)N[C@@H](Cc1ccccc1)[C@@H](O)C[C@H](CC(C)C)NC(=O)OCc1cncs1 = 10.03
• Cc1cccc(C)c1OCC(=O)N[C@@H](Cc1ccccc1)[C@@H](O)C[C@H](CC(C)C)NC(=O)c1ccc(N)cc1 = 8.92

----------
target-under-test: 82F/84V mutant HIV-1 protease (Human immunodeficiency virus type 1 group M subtype B, UniProt P04585, I572V/V570F)
Assay type: biochemical
protocol-conditions: Table 1
pKi: −log10 of the molar value.
readout-name: pKi

* Cc1cccc(C)c1OCC(=O)N[C@@H](Cc1ccccc1)[C@@H](O)C[C@H](CC(C)C)NC(=O)[C@@H](NC(=O)OCc1ccccn1)C(C)C [(30)] | 9.39
* CCOC(=O)N[C@H](C(=O)N[C@@H](CC(C)C)C[C@H](O)[C@H](Cc1ccccc1)NC(=O)COc1c(C)cccc1C)C(C)C [(46)] | 9.17
* Cc1cccc(C)c1OCC(=O)N[C@@H](Cc1ccccc1)[C@@H](O)C[C@H](CC(C)C)NC(=O)[C@@H](NC(=O)N1CCOCC1)C(C)C [(45)] | 9.36
* CC(C)[C@H](NC(=O)OCc1ccccn1)C(=O)N[C@@H](Cc1ccccc1)C[C@H](O)[C@H](Cc1ccccc1)NC(=O)[C@@H](NC(=O)OCc1ccccn1)C(C)C [(22), reference compound] | 9.57
* Cc1cccc(C)c1OCC(=O)N[C@@H](Cc1ccccc1)[C@@H](O)C[C@H](CC(C)C)NC(=O)[C@H](C(C)C)N1CCCNC1=O [(16)] | 9.86

----------
Reported pKi values, cathepsin D (Homo sapiens).
pKi: −log10 of the molar value.
readout-name: pKi

- Cc1cccc(C)c1OCC(=O)N[C@@H](Cc1ccccc1)[C@@H](O)C[C@H](CC(C)C)NC(=O)c1cccc(N)c1: 8.13
- Cc1cccc(C)c1OCC(=O)N[C@@H](Cc1ccccc1)[C@@H](O)C[C@H](Cc1ccccc1)NC(=O)[C@H](C(C)C)N1CCCNC1=O [(24), reference compound]: 5.71
- Cc1cccc(C)c1OCC(=O)N[C@@H](Cc1ccccc1)[C@@H](O)C[C@H](CC(C)C)NC(=O)[C@H](C(C)C)N1CCCNC1=O: 5.48
- Cc1cccc(C)c1OCC(=O)N[C@@H](Cc1ccccc1)[C@@H](O)C[C@H](CC(C)C)NC(=O)O[C@H]1CCOC1: 8.46

----------
target-under-test: UniProtKB P04585
protocol-notes: HIV protease assay (Ki)
Type: biochemical
protocol-conditions: Table 2; read-out: HIV-1 Ki
pKi: −log10 of the molar value.
This listing pairs compounds with measured pKi.
readout-name: pKi

• Cc1cccc(C)c1OCC(=O)N[C@@H](Cc1ccccc1)[C@@H](O)C[C@H](CC(C)C)NC(=O)NC(C)(C)C = 10.00
• Cc1cccc(C)c1OCC(=O)N[C@@H](Cc1ccccc1)[C@@H](O)C[C@H](CC(C)C)NC(=O)[C@H](C(C)C)N1CCCNC1=O = 11.15
• Cc1cccc(C)c1OCC(=O)N[C@@H](Cc1ccccc1)[C@@H](O)C[C@H](CC(C)C)NC(=O)N1CCOCC1 = 9.43
• CC[C@H](C)[C@H](NC(=O)OCc1ccccc1)C(=O)N[C@@H](Cc1ccccc1)[C@@H](O)C[C@H](CC(C)C)NC(=O)c1cccc(O)c1 = 9.80
• Cc1cccc(C)c1OCC(=O)N[C@@H](Cc1ccccc1)[C@@H](O)C[C@H](CC(C)C)NC(=O)c1cccc(N)c1 = 9.48
• Cc1cccc(C)c1OCC(=O)N[C@@H](Cc1ccccc1)[C@@H](O)C[C@H](CC(C)C)NC(=O)O[C@H]1CCOC1 = 10.22
• Cc1cccc(C)c1OCC(=O)N[C@@H](Cc1ccccc1)[C@@H](O)C[C@H](CC(C)C)NC(=O)[C@@H]1CCNC(=O)N1 = 9.80

----------
target-under-test: HIV-1 protease (Human immunodeficiency virus type 1 group M subtype B)
protocol-notes: HIV protease assay (Ki)
Assay type: biochemical
protocol-conditions: Table 1; read-out: HIV-1 Ki
So basically, if Ki comes in under 0.3 nM it's True, and if it's 0.3 nM or more it's False.

- CC(C)CC(CC(O)C(Cc1ccccc1)NC(=O)C(C(C)C)N1CCCNC1=O)NC(=O)OC(C)(C)C (stereo not drawn) [(44)]: False
- Cc1c(O)cccc1C(=O)N[C@@H](Cc1ccccc1)[C@@H](O)C[C@H](CC(C)C)NC(=O)[C@H](C(C)C)N1CCCNC1=O [(37)]: True
- CC(C)C[C@@H](C[C@H](O)[C@H](Cc1ccccc1)NC(=O)c1ccccc1NC(=O)OCc1ccccn1)NC(=O)c1ccccc1NC(=O)OCc1ccccn1 [(21)]: True
- CC(C)C[C@@H](C[C@H](O)[C@H](Cc1ccccc1)NC(=O)OCc1cncs1)NC(=O)[C@H](C(C)C)N1CCCNC1=O [Compound (19)]: True
- Cc1cccc(C)c1OCC(=O)N[C@@H](Cc1ccccc1)[C@@H](O)C[C@H](CC(C)C)NC(=O)[C@H](C)NC(=O)OCc1ccccc1 [(56)]: True
- CC(=O)N[C@H](C(=O)N[C@@H](CC(C)C)C[C@H](O)[C@H](Cc1ccccc1)NC(=O)COc1c(C)cccc1C)C(C)C [(50)]: True
- Cc1cccc(C)c1OCC(=O)N[C@@H](Cc1ccccc1)[C@@H](O)C[C@H](CC(C)C)NC(=O)c1cccc(N)c1 [(32)]: False
- Cc1cccc(C)c1OCC(=O)N[C@@H](Cc1ccccc1)[C@@H](O)C[C@H](CC(C)C)NC(=O)O[C@H]1CCOC1 [(26)]: True
- Cc1cccc(C)c1OCC(=O)N[C@@H](Cc1ccccc1)[C@@H](O)C[C@H](CC(C)C)NC(=O)C1CCCN(C(=O)OCc2ccccc2)C1 (stereo partly drawn) [(47)]: False
